targetOfAssay: T1, human CDH6 on tumor cells (OVCAR3 cells, PA-1 cells) (human, UniProt P55285 54-790)
T1 sequence: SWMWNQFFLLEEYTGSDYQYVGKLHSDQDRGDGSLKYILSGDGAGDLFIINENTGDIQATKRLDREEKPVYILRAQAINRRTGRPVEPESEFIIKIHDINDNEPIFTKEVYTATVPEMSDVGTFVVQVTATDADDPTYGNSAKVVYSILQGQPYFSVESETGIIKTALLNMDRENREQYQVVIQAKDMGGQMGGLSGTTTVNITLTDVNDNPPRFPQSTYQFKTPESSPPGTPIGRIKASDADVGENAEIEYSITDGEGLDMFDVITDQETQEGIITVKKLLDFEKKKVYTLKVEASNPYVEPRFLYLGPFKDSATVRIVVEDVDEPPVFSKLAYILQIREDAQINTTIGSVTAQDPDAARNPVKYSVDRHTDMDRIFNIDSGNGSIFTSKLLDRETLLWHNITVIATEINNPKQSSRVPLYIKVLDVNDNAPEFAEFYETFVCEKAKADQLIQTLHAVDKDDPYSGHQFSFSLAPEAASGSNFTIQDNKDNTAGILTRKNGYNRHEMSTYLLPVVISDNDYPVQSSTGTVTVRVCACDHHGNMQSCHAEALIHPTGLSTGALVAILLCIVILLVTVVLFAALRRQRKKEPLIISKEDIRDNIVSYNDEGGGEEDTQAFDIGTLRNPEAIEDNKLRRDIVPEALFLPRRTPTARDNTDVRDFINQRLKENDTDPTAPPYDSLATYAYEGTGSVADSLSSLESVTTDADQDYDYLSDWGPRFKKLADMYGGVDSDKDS
testMethodNotes: FACS, OVCAR3 cells
readout: Max MFI (MFI)
Unit MFI implied. Number only.

So for hCDH6-6-H2L3 (antibody, V domains shown, Humanized) VH: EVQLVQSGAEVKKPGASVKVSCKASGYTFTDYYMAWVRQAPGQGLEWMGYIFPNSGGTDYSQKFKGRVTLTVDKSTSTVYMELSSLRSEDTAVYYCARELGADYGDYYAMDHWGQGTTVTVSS VL: DIQMTQSPSSLSASVGDRVTITCRASENIDSYLAWYQQKPGKSPQLLVYSATLLADGVPSRFSGSGSGTDYTLTISSLQPEDFATYYCQHYYRTPPTFGQGTKLEIK , the logged Max MFI turned out to be 14100

So for hCDH6-6-H1L1 (antibody, V domains shown, Humanized) VH: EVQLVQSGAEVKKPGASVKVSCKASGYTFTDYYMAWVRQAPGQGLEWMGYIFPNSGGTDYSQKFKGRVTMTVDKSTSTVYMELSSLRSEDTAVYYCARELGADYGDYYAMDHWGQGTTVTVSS VL: DIQMTQSPSSLSASVGDRVTITCRASENIDSYLAWYQQKPGKSPKLLLYSATLLADGVPSRFSGSGSGTDYTLTISSLQPEDFATYYCQHYYRTPPTFGQGTKLEIK , the logged Max MFI turned out to be 13700

So for hCDH6-6-H1L4 (antibody, V domains shown, Humanized; also called hCDH6-6-HIL4) VH: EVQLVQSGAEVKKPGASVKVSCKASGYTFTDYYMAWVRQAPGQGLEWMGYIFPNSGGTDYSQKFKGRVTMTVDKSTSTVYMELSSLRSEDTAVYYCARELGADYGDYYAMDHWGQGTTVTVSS VL: DIQMTQSPSSLSASVGDRVTITCRASENIDSYLAWYQQKPGKSPKLLVYSATLLADGVPSRFSGSGSGTDYTLTISSLQPEDFARYYCQHYYRTPPTFGQGTKLEIK , the logged Max MFI turned out to be 14400

So for hCDH6-6-H2L1 (antibody, V domains shown, Humanized) VH: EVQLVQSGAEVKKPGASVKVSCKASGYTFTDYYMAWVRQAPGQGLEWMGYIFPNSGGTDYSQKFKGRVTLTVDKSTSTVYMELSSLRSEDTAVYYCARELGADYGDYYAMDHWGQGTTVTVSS VL: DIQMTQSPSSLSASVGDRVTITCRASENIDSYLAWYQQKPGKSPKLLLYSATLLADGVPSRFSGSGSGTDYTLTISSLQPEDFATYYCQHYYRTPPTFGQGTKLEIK , the logged Max MFI turned out to be 14000
